B1: CDC25A (parent)
chain: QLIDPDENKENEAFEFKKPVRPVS

Variants of: B1
ASSAY NAME: protein stability index of a GFP-peptide fusion (GPS, HEK-293T) (PSI 1-6); higher = more stable;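 note: lentivirally expressed fusions sorted by FACS into six bins by GFP to DsRed ratio, PSI derived from sequencing read proportions per bin multiplied by bin number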
MEASUREMENT PARAMETERS: c terminus: a fixed tail appended
# protein stability index per entry
VALUE TYPE: protein stability index

SEQUENCE INPUT | ENDPOINT VALUE
QLIDPDENKENEAFEFKKPVRRVS [P22R] | 4.23
QLIDPDENKENEAFEFKKNVRPVS [P19N] | 4.43
QLIDPDENKENEAFEFKKPVRPVW [S24W] | 3.3
QLIDPDENKENEAFEFLKPVRPVS [K17L] | 3.36
QLIDPDENKENEAFEFKKPMRPVS [V20M] | 3.82
QLIDPDENKENEFFEFKKPVRPVS [A13F] | 3.02
QLADPDENKENEAFEFKKPVRPVS [I3A] | 4.23
QLIDPDFNKENEAFEFKKPVRPVS [E7F] | 3.63
QLIDPDENKENEASEFKKPVRPVS [F14S] | 4.5
QLIDPDENKENEAFEFKKPPRPVS [V20P] | 4.43
QLIDPDENKENEAFEEKKPVRPVS [F16E] | 4.18
QLIDPDENKENEAFEFKKPVWPVS [R21W] | 3.28
QLIDPDEQKENEAFEFKKPVRPVS [N8Q] | 4.95
QLFDPDENKENEAFEFKKPVRPVS [I3F] | 3.91
QLIDPDENKENEVFEFKKPVRPVS [A13V] | 2.88
QLIDPDENKENEAFWFKKPVRPVS [E15W] | 3.54
NLIDPDENKENEAFEFKKPVRPVS [Q1N] | 3.83
QLIDPDENKENEAFEFKKPVRPQS [V23Q] | 4.04
QLIDPDENKEAEAFEFKKPVRPVS [N11A] | 3.81
QLIDPDENKENEAFEFHKPVRPVS [K17H] | 3.84
CLIDPDENKENEAFEFKKPVRPVS [Q1C] | 3.81
QLMDPDENKENEAFEFKKPVRPVS [I3M] | 3.75
QLIDPDENKENEAFEFKKPVIPVS [R21I] | 3.39
QLIDPDENKENEADEFKKPVRPVS [F14D] | 5.04
QLIDPDENKENEAFEFKKPVEPVS [R21E] | 4.33
QLTDPDENKENEAFEFKKPVRPVS [I3T] | 4.12
QLIDPDENKENEAFEFKKPVRPRS [V23R] | 3.11
QLIDPDENKENEAFEFKKPKRPVS [V20K] | 4.67
QLIDPGENKENEAFEFKKPVRPVS [D6G] | 3.64
QLIDPDWNKENEAFEFKKPVRPVS [E7W] | 3.3
QLIDPDENKFNEAFEFKKPVRPVS [E10F] | 3.12
QLIDPDENKENEMFEFKKPVRPVS [A13M] | 4.11
QLIDPDENKESEAFEFKKPVRPVS [N11S] | 4.22
QLIDPDENKENEAFMFKKPVRPVS [E15M] | 4.37
LLIDPDENKENEAFEFKKPVRPVS [Q1L] | 2.93
QLIDPDENKENEAFEFKKPVRPVC [S24C] | 3.5
QLIDPDENGENEAFEFKKPVRPVS [K9G] | 4.2
QLIDPDENNENEAFEFKKPVRPVS [K9N] | 4.65
QLIDPDENKQNEAFEFKKPVRPVS [E10Q] | 4.29
QLIDPDENKENEATEFKKPVRPVS [F14T] | 3.73
QLIDPDENKENEAFEQKKPVRPVS [F16Q] | 3.73
QLIDPDENKENEANEFKKPVRPVS [F14N] | 3.98
QLIDPDENKEQEAFEFKKPVRPVS [N11Q] | 4.32
QLIDPDENKENEAIEFKKPVRPVS [F14I] | 4.04
QDIDPDENKENEAFEFKKPVRPVS [L2D] | 4.51
QLIDPDENKTNEAFEFKKPVRPVS [E10T] | 4.3
